- measured.target: recombinant human HDAC8 (Homo sapiens (Human), UniProt Q9BY41)
- Sequence (Q9BY41 whole entry): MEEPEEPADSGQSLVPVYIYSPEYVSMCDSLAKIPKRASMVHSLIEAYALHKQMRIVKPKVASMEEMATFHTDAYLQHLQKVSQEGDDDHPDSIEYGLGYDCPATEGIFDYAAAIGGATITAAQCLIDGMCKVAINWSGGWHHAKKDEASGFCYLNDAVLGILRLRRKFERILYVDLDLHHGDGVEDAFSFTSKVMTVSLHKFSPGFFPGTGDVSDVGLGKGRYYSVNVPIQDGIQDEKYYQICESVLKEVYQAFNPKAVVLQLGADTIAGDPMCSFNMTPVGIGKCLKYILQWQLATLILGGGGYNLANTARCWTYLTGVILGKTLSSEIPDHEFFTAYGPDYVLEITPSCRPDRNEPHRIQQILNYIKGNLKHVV
- protocol.text: HDAC8 inhibition: recombinant HDAC8 fluorometric assay
- conditions.used: recombinant human HDAC8, substrate Ac-Arg-His-Lys-Lys(ε-acetyl)-AMC
endpoint.name: IC50 (µM)

// known answers, use as guide
{"compound": "O=C(NO)c1cc2c(cc1F)CCC(NS(=O)(=O)c1ccc(Cl)cc1)C2 (centres unmarked) [Example 51]", "observed.result": 1.28}
{"compound": "O=C(NO)c1ccc2c(c1)CC(NS(=O)(=O)c1cccc(F)c1)CN2 (centres unmarked) [Example 62]", "observed.result": 1.14}
{"compound": "COc1ccc(-c2ccnc(NC3CCc4ccc(C(=O)NO)cc4C3)n2)cn1 (centres unmarked) [Example 28]", "observed.result": 1}

1 = O=C(NO)c1ccc2c(c1)CC(Nc1nccc(-c3ccc(F)c(Cl)c3)n1)CC2 (centres unmarked) [Example 22]
2 = O=C(NO)c1cc2c(cc1F)CCC(NS(=O)(=O)c1cccc(Cl)c1)C2 (centres unmarked) [Example 52]
Of 1 and 2 , whose reported IC50 is the larger number? Output the label that corresponds to your choice.
1
(1: 2.24 µM, 2: 0.93 µM)

1 = Cc1ccc(-c2ccnc(NC3CCc4ccc(C(=O)NO)cc4C3)n2)cc1 (centres unmarked) [Example 11]
2 = O=C(NO)c1ccc2c(c1)CC(NC(=O)c1cccc(C(F)(F)F)c1)CN2 (centres unmarked) [Example 57]
3 = O=C(NO)c1ccc2c(c1)CC(NS(=O)(=O)c1cccc(Cl)c1)CC2 (centres unmarked) [Example 42]
4 = O=C(NO)c1ccc2c(c1)CC(NS(=O)(=O)c1cccc(OC(F)(F)F)c1)CN2 (centres unmarked) [Example 63]
5 = O=C(NO)c1ccc2c(c1)CC(Nc1nccc(-c3cnc4ccccc4c3)n1)CC2 (centres unmarked) [Example 34]
Rank entries according to their IC50, from the largest number down. # list labels per requested ordering
2, 4, 1, 5, 3
(2: 2.67 µM, 4: 1.61 µM, 1: 0.8 µM, 5: 0.48 µM, 3: 0.16 µM)

1 = Cc1cc(Oc2ccccc2)nc(NC2CCc3ccc(C(=O)NO)cc3C2)n1 (centres unmarked) [Example 32]
2 = CCCCS(=O)(=O)NC1CCc2ccc(C(=O)NO)cc2C1 (centres unmarked) [Example 39]
Could you check which of 1 and 2 has a smaller value for IC50? Give the chosen item's label as your response.
2
(2: 0.91 µM, 1: 1.5 µM)

Attribution: patent US8716285B2
